Attribution: the supplement of paper PMC9233669

List of self-aminoacylation values.
System: biotinyl-Met-oxazolone
assay: self-aminoacylation, catalytic enhancement (BMO) (fold over background); higher = more active; k-Seq, kA / k0A0; sequences stand for … in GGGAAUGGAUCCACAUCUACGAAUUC…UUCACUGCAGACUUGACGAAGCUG
Variants at the floor of the assay were thinned out.
Field format: numeric only.

Examples from the recorded data:
>>> recorded_result("ACGUUUGCUUAUAGUCGCAAG [Fam3.1 aminoacylation ribozyme variant]")
1.68
>>> recorded_result("AUGCACCUAGGGCAUCGGGUG [Fam2.2 aminoacylation ribozyme variant]")
3.04
>>> recorded_result("AAGUUUGGUAAUAGGCGCAAG [Fam3.1 aminoacylation ribozyme variant]")
0.705
>>> recorded_result("AAGGUUGCUAAUGGUCGCAAG [Fam3.1 aminoacylation ribozyme variant]")
0.949

Req: Find self-aminoacylation for CUACUUCAAACAAUCGGUAAG [Fam1A.1 aminoacylation ribozyme variant] on biotinyl-Met-oxazolone and write it down.
Resp: 0.454

----------
System: biotinyl-Ile-oxazolone
assay: self-aminoacylation, catalytic enhancement (BIO) (fold over background); higher = more active; k-Seq, kA / k0A0; sequences stand for … in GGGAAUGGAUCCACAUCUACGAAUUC…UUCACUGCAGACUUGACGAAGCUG
This sample holds only a part of the variants without activity.
recorded_metric: self-aminoacylation
Field format: numeric only.

Examples from the recorded data:
>>> recorded_result("CCACACUUCUAGCAAUAGGUC [Fam1B.1 aminoacylation ribozyme variant]")
0.629
>>> recorded_result("UUUCACCUAGGUCAUCGGCUG [Fam2.2 aminoacylation ribozyme variant]")
1.93
>>> recorded_result("GUUACCCUGGGCAUCGAGUGA [Fam2.1 aminoacylation ribozyme variant]")
4.53
>>> recorded_result("AAGUUUGCUAAUAGUAGCCAG [Fam3.1 aminoacylation ribozyme variant]")
0.868
>>> recorded_result("AUUACCCUGGUCAUGAAGUGA [Fam2.1 aminoacylation ribozyme variant]")
4.14
>>> recorded_result("CAACUUCAAACCAUCGGUCUG [Fam1A.1 aminoacylation ribozyme variant]")
1.06

Req: Please report the measured self-aminoacylation for AUUCCCCUAGGUCAUCAGGUG [Fam2.2 aminoacylation ribozyme variant]
Resp: 6.44

Req: Please report the measured self-aminoacylation for AUUUACCUAGGUCAUCGGAUG [Fam2.2 aminoacylation ribozyme variant]
Resp: 0.906

Req: Please report the measured self-aminoacylation for CUACGUCAAACAAACGGUCUG [Fam1A.1 aminoacylation ribozyme variant]
Resp: 1.06

----------
Tested on: biotinyl-Ile-oxazolone
assay: self-aminoacylation, catalytic enhancement (BIO) (fold over background); higher = more active; k-Seq, kA / k0A0; sequences stand for … in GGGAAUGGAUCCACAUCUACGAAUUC…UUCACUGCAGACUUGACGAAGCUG
Variants at the floor of the assay were thinned out.
recorded_metric: self-aminoacylation
Field format: numeric only.

Examples from the recorded data:
>>> recorded_result("GUAUUUCAAACAAUCGGUCUG [Fam1A.1 aminoacylation ribozyme variant]")
1.1
>>> recorded_result("CUACUUCAGACAAUCGGUCUC [Fam1A.1 aminoacylation ribozyme variant]")
0.936
>>> recorded_result("AUUACGGUGGUCAUCGAGUGA [Fam2.1 aminoacylation ribozyme variant]")
2.44

Req: Please report the measured self-aminoacylation for AUUACGCUGGUCAUUGAGUGA [Fam2.1 aminoacylation ribozyme variant]
Resp: 3.29

Req: Please report the measured self-aminoacylation for CUACUUGAAACAAUGGGUCUG [Fam1A.1 aminoacylation ribozyme variant]
Resp: 1.3

Req: Please report the measured self-aminoacylation for AUUUGCCUGGUCAUCGAGUGA [Fam2.1 aminoacylation ribozyme variant]
Resp: 4.47

Req: Please report the measured self-aminoacylation for CCUCACUUCAAGCAAUCUGUC [Fam1B.1 aminoacylation ribozyme variant]
Resp: 0.458

Req: Please report the measured self-aminoacylation for AUUACCCCGGUCAGCGAGUGA [Fam2.1 aminoacylation ribozyme variant]
Resp: 3.32

Req: Please report the measured self-aminoacylation for AUUACCGUGGUCAUCGAGUGU [Fam2.1 aminoacylation ribozyme variant]
Resp: 1.89

Req: Please report the measured self-aminoacylation for AUCCACGUAGGUCAUCGGGUG [Fam2.2 aminoacylation ribozyme variant]
Resp: 3.4

Req: Please report the measured self-aminoacylation for CUACUUCAUACAAUUGGUCUG [Fam1A.1 aminoacylation ribozyme variant]
Resp: 0.743

Req: Please report the measured self-aminoacylation for CGACACUUCAAGCAAUCGGCC [Fam1B.1 aminoacylation ribozyme variant]
Resp: 3.11

Req: Please report the measured self-aminoacylation for CUACUUCAAUCAAUCGGUCUA [Fam1A.1 aminoacylation ribozyme variant]
Resp: 0.972

Req: Please report the measured self-aminoacylation for CUACUUGAAACAAUCGGUCUG [Fam1A.1 aminoacylation ribozyme variant]
Resp: 0.766
